# viability per entry
# method-notes: viability of HCT116 without oncogenic beta-catenin – human colon tumor cells, pilot screen (AID 823);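 note: 0% = wells killed by 20 µM Hyamine and 100% = untreated DMSO cell wells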
# condition-context: HCT116 beta-catenin knockout viability, CellTiter-Glo, 60 h; at 10 µM; stronger effect = lower value
Results filed as inconclusive are left out. Active and inactive are the calls of the source.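 Rule for the calls: active = cell viability at or below a set limit in both duplicate runs, the limit being the all-compound median minus 4 SD (cut at about 23% in these data, passing the limit was not always enough); inconclusive = no clear call, values can overlap the other calls; inactive = the rest.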

These recorded examples may help you get a feel for the data.
compound | viability
COC(=O)CSc1nc(C)cc(Oc2ccccc2)n1 | 104% (inactive)
COCCCNC(=O)c1cc2c(-c3ccc(Cl)cc3)nn(C)c2s1 | 82.9% (inactive)
O=C(c1cc2ccccc2oc1=O)N1CCN(c2ccc(N3CCOCC3)nn2)CC1 | 101% (inactive)
COc1ccc(S(=O)(=O)N2CCC(C(N)=O)CC2)cc1 | 106% (inactive)
O=C1Nc2ccccc2C(O)(C(=O)NC2CC2)N1c1ccc(Cl)c(Cl)c1 (stereo unspecified) | 92.5% (inactive)

Consider now this further compound.
What the record says about `O=C1CCC(=O)N1c1ccc(CSc2nnnn2C2CCCCC2)cc1` : viability is 103% (inactive)

====

# method-notes: S. cerevisiae growth inhibition in restrictive medium, OD615, pilot screen, restrictive growth control, yeast lifespan reduction project (AID 706);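 note: modified DeaD lifespan yeast strain shifted to restrictive glucose medium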
# condition-context: OD615, 48 h, at 10 µM, stronger effect = higher value
# growth inhibition per entry
Unit % implied. Number only.

What the record says about COCCCNc1nc2c(c(=O)[nH]c(=O)n2C)n1CC(O)COc1ccccc1C (stereo not drawn) : growth inhibition is -7.5

====

# inhibition per entry
# method-notes: yeast transport mutant growth inhibition pilot in 384-well plates, post-Golgi transport modulator project (AID 636)
# condition-context: absorbance 615 nm, about 18 h, stronger effect = higher value
Unit % implied. Number only.

These recorded examples may help you get a feel for the data.
molecule | unit-string | recorded-number
O=C(NC1CCCCCC1)c1c(F)c(F)c(F)c(F)c1F | % | 0.26
c1ccc(CN2CCN(CCCNc3ccc4nnc(-c5ccccc5)n4n3)CC2)cc1 | % | 0.13
O=C(Nc1ccc2c(c1)OCCO2)C1CCN(C(=O)c2ccc(F)cc2)CC1 | % | -4.53
O=C(CC1Oc2ccc(Cl)cc2NC1=O)NC1CCCCCC1 (centres undefined) | % | -1.47
CN1CCN(CCCNC(=O)Cn2ncc3c4ccccc4n(C)c3c2=O)CC1 | % | 1.15

What the record says about `CCN1CCN(C(=O)c2cn(CC)c3ccc(S(=O)(=O)N(C)C)cc3c2=O)CC1` : inhibition is 0

What the record says about `CCCCn1c(CNC(=O)CCC)nc2ccccc21` : inhibition is -5.2

====

# growth inhibition per entry
# method-notes: S. cerevisiae growth inhibition in permissive medium (OD615), pilot counter-assay for S. cerevisiae lifespan shortening project, permissive growth control (AID 705)
# condition-context: OD615, 24 h, at 10 µM, stronger effect = higher value
Unit % implied. Number only.

These recorded examples may help you get a feel for the data.
compound | growth inhibition (%)
CS(=O)(=O)N(Cc1ccco1)CC(O)Cn1c2ccccc2c2ccccc21 (stereo not given) | -6.72
Cc1ccc(C(C(=O)NC2CCCCC2)N2CCOCC2)cc1 (stereo not given) | -9.79
O=C1CC(c2ccc(Cl)c(Cl)c2)CC(O)=C1C=NCCN1CCNCC1 (stereo not given) | -11.8
Cc1c(C(=O)NC2CC2)oc2ccc(S(=O)(=O)N3CCCCCC3)cc12 | -7.49
CC1=C(C(=O)OC2CCCCC2)C(c2ccco2)C2=C(CC(C)(C)CC2=O)N1 (stereo not given) | -8.2

What the record says about `Cc1ccccc1-c1nc(CN2CCC(C(=O)N3CCC(C(N)=O)CC3)CC2)c(C)o1` : growth inhibition is -8.16

What the record says about `N#CCC(=O)Nc1ccccc1C(=O)O` : growth inhibition is -4.9

What the record says about `Cc1ccc(C)c(N2CCN(CCCNC(=O)Cn3cc4c(n3)CCCCC4)CC2)c1` : growth inhibition is -6.4

What the record says about `Cc1ccc(S(=O)(=O)N2CCC(C(=O)N3CCN(Cc4ccccc4)CC3)CC2)cc1` : growth inhibition is -8.33

What the record says about `COc1ccccc1N1CCN(C(=O)CCCn2c(=O)[nH]c3ccsc3c2=O)CC1` : growth inhibition is 3.76
